Assay: Bioavailability in dog
Type: ADME, organism-based, Canis lupus familiaris
Experimental Parameters: in vivo
Criterion: bioavailability meeting or surpassing 30%. Met: Fulfilled. Not met: Not fulfilled.

Molecular String | Discrete Label
COc1cccn(CC(=O)NCc2cc3cc(C(=O)N4CCC(N5C(=O)OCc6ccccc65)CC4)ccc3o2)c1=O | Fulfilled
O=C(Cn1ccc(N2CCOCC2)nc1=O)NCc1cc2cc(C(=O)N3CCC(N4C(=O)OCc5ccccc54)CC3)ccc2o1 | Not fulfilled
O=C(c1ccc2oc(CN3CCC[C@@H](n4cc(C(F)(F)F)ccc4=O)C3)cc2c1)N1CCC(N2C(=O)OCc3ccccc32)CC1 | Not fulfilled
O=C(Cn1cc(C(F)(F)F)ccc1=O)NCc1cc2cc(C(=O)N3CCC(N4C(=O)OCc5ccccc54)CC3)ccc2o1 | Fulfilled
CCOc1ccn(CC(=O)NCc2cc3cc(C(=O)N4CCC(N5C(=O)OCc6ccccc65)CC4)ccc3o2)c(=O)n1 | Fulfilled
O=C(Cn1cnc(C(F)(F)F)cc1=O)NCc1cc2cc(C(=O)N3CCC(N4C(=O)OCc5ccccc54)CC3)ccc2o1 | Fulfilled
COc1cc(OC2CCN(C(C)=O)CC2)ccc1C(=O)N1CCC(N2C(=O)OCc3ccccc32)CC1 | Not fulfilled
Cn1ncc2c(=O)n(CC(=O)NCc3cc4cc(C(=O)N5CCC(N6C(=O)OCc7ccccc76)CC5)ccc4o3)cnc21 | Fulfilled
